Each recorded value in this set is attributed to PubChem BioAssay (NCI).

Entries and their growth
- Test system: NCI-H322M lung
- METHOD: NCI-60 one-dose screen, 48 h (100 = growth as untreated, 0 = no growth, -100 = all killed)
- TEST_CONTEXT: 10 µM unless noted
About 83,000 compounds went through this panel and 20% of them were active in at least one assay; those are over-represented in the sample as a whole.
Reply with just the number (in %).

[[record]]
compound = "CCOP1(=O)CC(C)=C(Cl)C(P(=O)(OCC)OCC)C1 (stereo not drawn)"
readout_type = "growth"
value_observed = 124

[[record]]
compound = "CCOC(=O)[C@@H](C)C[C@H](Cc1ccccc1)NC(=O)c1nc([C@@H](C[C@H](C(C)C)N(C)C(=O)[C@@H](NC(=O)[C@H]2CCCCN2C)C(C)C)OC(C)=O)sc1CCOCc1ccccc1"
readout_type = "growth"
value_observed = 11.9

[[record]]
compound = "CCCCCN(CCCCC)CC(O)c1cc(Cl)ccc1OC (stereo not drawn)"
readout_type = "growth"
value_observed = 62.2


Q: Any idea what its growth is? The compound is c1ccc(CSC(c2ccccc2)c2ccccc2)cc1
Ans: 119

Q: Any idea what its growth is? The compound is Fc1cccc(NCOOC2(OOCNc3cccc(F)c3)CCCCC2)c1
Ans: 98.6

Q: Any idea what its growth is? The compound is O=C(CC1(O)C(=O)N(Cc2ccccc2)c2ccc(F)cc21)c1ccc(C(=O)NCC2CCC3(CC2)OOC2(CCCCC2)OO3)cc1 (stereo not drawn)
Ans: 50.1

Q: Any idea what its growth is? The compound is CC(C)CCC1(CCCl)C(=O)NC(=O)NC1=O
Ans: 101

Q: Any idea what its growth is? The compound is CC[C@H](C)[C@H](NC(=O)NC(C)(C)C)C(=O)N(C)[C@H](C[C@@H](OC(C)=O)c1nc(C(=O)N[C@@H](Cc2ccccc2)C[C@H](C)C(=O)OC)cs1)C(C)C
Ans: 44.4
